Hey, just so you know, these numbers are from paper PMC11519904.

# Tested on: KB3.1 (human cervix carcinoma)
# test: Cytotoxicity assay (MTT), KB3.1
# Type: cell-based
# conditions-used: Homo sapiens, KB 3-1, 120 h, read-out: IC50 KB3.1
readout-label: IC50 (nM)
Expressed in nM, but write only the number.

Q) What does the record list as IC50 for C/C(=C\c1csc(C)n1)[C@@H]1C[C@@H]2O[C@]2(C)CCC[C@H](C)[C@H](O)[C@@H](C)C(=O)C(C)(C)[C@@H](O)CC(=O)O1 [Epothilone B, reference compound] ?
A) 0.095

* * *

# Tested on: KB3.1 (human cervix carcinoma)
# test: Cytotoxicity assay (MTT), KB3.1
# Type: cell-based
# conditions-used: 5 days of incubation, MTT; read-out: IC50 KB3.1
readout-label: IC50

Q) What does the record list as IC50 for C=C1[C@@H](C)[C@H]2[C@H](Cc3ccccc3)N(C(C)=O)C(=O)[C@]23OC(=O)/C=C/[C@H](O)CCC[C@@H](C)C/C=C/[C@H]3[C@@H]1O ?
A) 7.9 µM

* * *

# Tested on: L929 (mouse fibroblast)
# test: Cytotoxicity assay (MTT), L929
# Type: cell-based
# conditions-used: 5 days of incubation, MTT; NC: no cytotoxic effect, or only weak inhibition of proliferation; read-out: IC50 L929
Assignment: determine reported pIC50 for the given molecules.
Note on pIC50: it is the negative log10 of concentration, concentration in mol/L.

Q) What measured pIC50 is associated with C=C1[C@@H](C)[C@H]2[C@H](Cc3ccccc3)NC(=O)[C@]23OC(=O)/C=C/[C@H](OC(C)=O)CCC[C@@H](C)C/C=C/[C@H]3[C@@H]1O on L929 (mouse fibroblast)?
A) 5.32

Q) Now give it for C=C1[C@@H](C)[C@H]2[C@H](Cc3ccccc3)N(C(C)=O)C(=O)[C@]23OC(=O)/C=C/[C@H](O)CCC[C@@H](C)C/C=C/[C@H]3[C@@H]1O too.
A) 5.03

Q) Now give it for C=C1[C@@H](C)[C@H]2[C@H](Cc3ccccc3)NC(=O)[C@]23OC(=O)/C=C/[C@H](O)CCC[C@@H](C)C/C=C/[C@H]3[C@@H]1OC(C)=O too.
A) 4.80
